Counter-ions that a name gives are not always drawn.
As shown below, each of these molecules has a reported melting point value.

> print(dat)
                                   molecule  experimental.value
1  Cc1ccc(O)c(CNCCc2c[nH]c3ccccc23)c1 (as salt: fumarate) [Compound 23]       183 to 185 °C
2  Oc1ccccc1CNCCc1c[nH]c2ccccc12 (as salt: hydrochloride) [Compound 2]       222 to 223 °C
3  COc1ccc(F)cc1CNCCc1c[nH]c2ccccc12 (as salt: hydrochloride) [Compound 25]       179 to 180 °C
4  Oc1cccc(F)c1CNCCc1c[nH]c2ccccc12 (as salt: succinate) [Compound 34]       159 to 161 °C
5  O=[N+]([O-])c1ccc(O)c(CNCCc2c[nH]c3ccccc23)c1 (as salt: hydrochloride) [Compound 30]       194 to 196 °C
6  COc1ccc(Cl)cc1CNCCc1c[nH]c2ccccc12 (as salt: hydrochloride) [Compound 28]       184 to 185 °C

Recorded melting point of COc1ccc(Br)cc1CNCCc1c[nH]c2ccccc12 (as salt: hydrochloride) [Compound 27] , please. 192 to 193 °C

For CCOc1ccc(CNCCc2c[nH]c3ccccc23)cc1 (as salt: hydrochloride) [Compound 15] then? 206 to 208 °C
